Readings of TGI for the listed compounds
Test system: COLO 205 colon
Experiment: NCI tumour cell line growth inhibition, 48 h
ASSAY_ENDPOINT: TGI

COMPOUND	MEASUREMENT
O=S(=O)(O)CCS	> 100 µM
COc1cc2c3c(n(CCCN)c(=O)c2cc1OC)-c1ccc(F)cc1C3=O	5.4 µM
Nc1nc2c(c3ncccc13)C(c1cccc(Cl)c1)Cc1ncccc1-2 (stereo not given)	3.94 µM
CC1CCCC(C(O)CC2CC(=O)N(c3ccccc3)C(=O)C2)C1=O (stereo not given)	> 100 µM
O=C1c2ccccc2S(=O)(=O)N1CSC(=S)N1CCCC1	> 100 µM
C=C1C(=O)O[C@H]2[C@H]1CC/C(COC(=O)C(=O)c1c[nH]c3ccc(OC)cc13)=C\CC[C@@]1(C)O[C@@H]21	> 20.6 µM
COC(=O)[C@@H]1c2cc3c(c(O)c2[C@@H](OC)C[C@@]1(C)O)C(=O)c1c(O)cc2c(c1C3=O)OC1O[C@@]2(C)[C@H](O)[C@@H](N(C)C)[C@@H]1O	1.98 µM
N=c1c2c3n(c4c(=O)n(-c5ccccc5)c(=S)n(c(=O)n1-c1ccccc1)c24)CCCCC3	> 100 µM
C=C(CN1CCN(c2cccc(C(F)(F)F)c2)CC1)c1ccc(C(=O)Nc2ccccc2N)cc1	> 23 µM
COc1cc2cc(Oc3ccc(NC(=O)Nc4ccccc4)cc3)c(C)nc2cc1OCCN1CCCCC1	13.1 µM
NC(=O)c1csc(C2C=CC(CO)O2)n1 (stereo not given)	> 100 µM
Cc1ccc(N=C2CSc3nnc(-c4csc5c4CCCC5)n3N2)cc1	> 50 µM
NC(=O)c1n[nH]n(-c2ccccc2)c1=O	> 100 µM
Cc1cc(O)c2c(c1)C(=O)c1cc(O)cc(O)c1C2=O	42 µM
CC(C)(C)NC(NC(C)(C)C)=C(C(Cl)=C(Cl)Cl)[N+](=O)[O-]	> 100 µM
Nc1ccn([C@H]2C[C@@H](O)[C@@H](CO)S2)c(=O)n1	> 100 µM
Cc1ccc(/C=C2\NC(=S)N(CN3CCOCC3)C2=O)cc1	> 100 µM
N/N=C1\c2ccccc2C2/C(=N\N)c3ccccc3C12 (stereo not given)	> 100 µM
O=C([O-])c1ccc2c(c1)-c1nc-2nc2[n-]c(nc3nc(nc4[n-]c(n1)c1ccc(C(=O)[O-])cc41)-c1cc(C(=O)[O-])ccc1-3)c1ccc(C(=O)[O-])cc21.[Fe+2]	> 31.2 µM
Cc1cccc(-c2cc(=O)c3ccc(C)nc3[nH]2)c1	4.06 µM
